# Tested on: KM12
# ASSAY_SETUP: read-out: LC50; KM12, Colon, 48 h
RECORDED_ENDPOINT: CC50 (µM)
Dear colleague, please return just the value in µM, with no unit written.

Prompt: Give its CC50 value. Item: CC(=O)C=CSc1nc(N)nc2nc[nH]c12 [trans-AVTG, 6-(2-acetylvinylthio) guanine]
Response: 64.8

====

# Tested on: Ovarian cell lines
# TEST_DESCRIPTION: NCI anticancer screen, by tissue type
# ASSAY_SETUP: read-out: median LC50; Ovarian
RECORDED_ENDPOINT: CC50 (µM)
Dear colleague, please return just the value in µM, with no unit written.

Prompt: Give its CC50 value. Item: CC(=O)C=CSc1nc(N)nc2nc[nH]c12 [trans-AVTG, 6-(2-acetylvinylthio) guanine]
Response: 51.4
